Attribution: patent US6914045B2

# System: Enterococcus sp.
# assay comment: in vitro antibacterial evaluation, MIC by broth dilution
# Format: cell-based
# run conditions: broth dilution, 18 hours at 35° C.; strain GC 4552
endpoint label: MIC Enterococcus faecalis (GC 4552) (µg/mL)
Write the value in µg/mL as a bare number.

Query :: Param readout= MIC Enterococcus faecalis (GC 4552); system= Enterococcus sp.; entry= COc1ccc(CC2OCC3OC(OC4C(CO)OC(Oc5ccc(CC6NC(=O)C(C(C)c7ccccc7)NC(=O)CNC(=O)C(CO)NC(=O)C(C(O)C7CNC(=N)N7C7OC(CO)C(O)C(O)C7O)NC(=O)C(C(O)C7CNC(=N)N7)NC6=O)cc5)C(O)C4O)C(O)C(O)C3O2)cc1 (centres unmarked) ; returns value.
Result :: 8

Query :: Tell me reported MIC Enterococcus faecalis (GC 4552) for CC(C)CC(=O)OCC1OC(OC2C(CO)OC(Oc3ccc(CC4NC(=O)C(Cc5ccccc5)NC(=O)CNC(=O)C(CO)NC(=O)C(C(O)C5CNC(=N)N5C5OC(CO)C(O)C(O)C5O)NC(=O)C(C(O)C5CNC(=N)N5)NC4=O)cc3)C(O)C2O)C(O)C(O)C1O (centres unmarked) [Example 283c] , tested with Enterococcus sp..
Result :: 128

Query :: Item CC(C)CCC(=O)OC1C(OC2C(CO)OC(Oc3ccc(CC4NC(=O)C(C(C)c5ccccc5)NC(=O)CNC(=O)C(CO)NC(=O)C(C(O)C5CNC(=N)N5C5OC(CO)C(O)C(O)C5O)NC(=O)C(C(O)C5CNC(=N)N5)NC4=O)cc3)C(O)C2O)OC(CO)C(O)C1O (centres unmarked) [Example 270a] with Enterococcus sp. - MIC Enterococcus faecalis (GC 4552)?
Result :: 16

Query :: Please state recorded MIC Enterococcus faecalis (GC 4552) (tested on Enterococcus sp.) of CCCC(CCC)C(=O)OCC1OC(OC2C(CO)OC(Oc3ccc(CC4NC(=O)C(C(C)c5ccccc5)NC(=O)CNC(=O)C(CO)NC(=O)C(C(O)C5CNC(=N)N5C5OC(CO)C(O)C(O)C5O)NC(=O)C(C(O)C5CNC(=N)N5)NC4=O)cc3)C(O)C2O)C(O)C(O)C1O (centres unmarked) [Example 99c]
Result :: 4

Query :: Please provide the recorded MIC Enterococcus faecalis (GC 4552) for CC(c1ccccc1)C1NC(=O)CNC(=O)C(CO)NC(=O)C(C(O)C2CNC(=N)N2C2OC(CO)C(O)C(O)C2O)NC(=O)C(C(O)C2CNC(=N)N2)NC(=O)C(Cc2ccc(OC3OC(CO)C(OC4OC(COCC=Cc5ccccc5)C(O)C(O)C4O)C(O)C3O)cc2)NC1=O (centres unmarked) , tested on Enterococcus sp..
Result :: 16

Query :: Could you share what MIC Enterococcus faecalis (GC 4552) was measured for COc1ccc(COC2C(CO)OC(OC3C(CO)OC(Oc4ccc(CC5NC(=O)C(C(C)c6ccccc6)NC(=O)CNC(=O)C(CO)NC(=O)C(C(O)C6CNC(=N)N6C6OC(CO)C(O)C(O)C6O)NC(=O)C(C(O)C6CNC(=N)N6)NC5=O)cc4)C(O)C3O)C(O)C2O)cc1OCc1ccccc1 (centres unmarked) [Example 239a] , tested on Enterococcus sp.?
Result :: 8

Query :: Give recorded MIC Enterococcus faecalis (GC 4552) with Enterococcus sp. for the following compound: CC(c1ccccc1)C1NC(=O)CNC(=O)C(CO)NC(=O)C(C(O)C2CNC(=N)N2C2OC(CO)C(O)C(O)C2O)NC(=O)C(C(O)C2CNC(=N)N2)NC(=O)C(Cc2ccc(OC3OC(CO)C(OC4OC5COC(Cc6ccc(F)cc6)OC5C(O)C4O)C(O)C3O)cc2)NC1=O (centres unmarked)
Result :: 2
